Tested on: redroot pigweed (Amaranthus retroflexus)
Assay: Test G Pre-Emergence Protocol
Format: in vivo
Details: Amaranthus retroflexus, pre-emergence, 312 h, 62.5 g ai/ha, evaluated after 13 days, 100=total damage to plant, 0=no damage to plant, read-out: plant damage rating, Pigweed, Redroot
From the text: Seeds of corn (Zea mays), giant foxtail (Setaria faberi), barnyardgrass (Echinochloa crus-galli), ivy-leaved morning glory (Ipomoea hederacea), redroot pigweed (Amaranthus retroflexus) and velvetleaf (Abutilon theophrasti) were sown in standard soil in pots. […]
Below, each of the compounds is paired with its reported pest or weed control at 62.5 g/ha value.
Readout name: pest or weed control at 62.5 g/ha (%)

Compound: Cc1cnc(NC(=O)[C@@H]2C(=O)N(C)C[C@H]2c2ccc(C(F)(F)F)cc2)nn1 (racemic) [Compound 1508]
Readout name: pest or weed control at 62.5 g/ha
Value measured: 0
//
Compound: CN1C[C@H](c2ccc3c(c2)CCCC3)[C@@H](C(=O)Nc2cccc(F)c2F)C1=O (racemic) [Compound 1496]
Readout name: pest or weed control at 62.5 g/ha
Value measured: 0
//
Compound: CN1C[C@@H](c2ccc(C(F)(F)F)cc2)[C@H](C(=O)Nc2csc(C(F)(F)F)n2)C1=O (racemic) [Compound 1587]
Readout name: pest or weed control at 62.5 g/ha
Value measured: 0

====

Test system: ragweed (common ragweed, Ambrosia elatior)
Assay: Test A preemergence
Assay type: in vivo
Conditions: 500 g ai/ha, preemergence; 0 to 100 scale, 0 = no effect, 100 = complete control
Readout name: Plant response rating, Ragweed

Molecule: NS(=O)(=O)c1ccccc1NC(=O)C1C(=O)NCC1c1cccc(C(F)(F)F)c1 (stereo not drawn)
Value measured: 0
--
Molecule: CN1CC(c2ccc(F)c(C(F)(F)F)c2)C(C(=O)Nc2cccc(F)c2F)C1=O (stereo not drawn)
Value measured: 60
--
Molecule: CN1CC(c2cccc(OC(F)F)c2)C(C(=O)Nc2ccccc2F)C1=O (stereo not drawn)
Value measured: 70
--
Molecule: CN1CC(c2ccc(C(C)(F)F)cc2)C(C(=O)Nc2ccccc2F)C1=O (stereo not drawn)
Value measured: 90
--
Molecule: COc1cccc(NC(=O)C2C(=O)NCC2c2cccc(C(F)(F)F)c2)c1F (racemic)
Value measured: 0
--
Molecule: CC(C)Oc1cccc(C2CN(C)C(=O)C2C(=O)Nc2ccccc2C(F)(F)F)c1 (stereo not drawn)
Value measured: 0
--
Molecule: CN1CC(c2ccc(C(F)(F)F)cc2)C(C(=O)Nc2ccccc2S(C)(=O)=O)C1=O (stereo not drawn)
Value measured: 70
--
Molecule: Cc1ccc(C2CNC(=O)C2C(=O)Nc2ccc(F)c(F)c2F)cc1C(F)(F)F (racemic)
Value measured: 0
--
Molecule: Cc1cccc(C2CN(C)C(=O)C2C(=O)Nc2cccc(F)c2F)c1 (stereo not drawn)
Value measured: 70

====

System: barnyardgrass (Echinochloa crus-galli)
Test: Test A postemergence
Format: in vivo
Conditions: Echinochloa crus-galli, post-emergence, 240 h, 500 g ai/ha, postemergence; 0 to 100 scale, 0 is no effect, 100 is complete control; read-out: Barnyardgrass plant response rating
Readout name: pest or weed control at 500 g/ha (%)

Smiles notation: CC(C)Oc1ccc([C@H]2CNC(=O)[C@@H]2C(=O)Nc2cccc(F)c2F)cc1
Assayed target: barnyardgrass (Echinochloa crus-galli)
Readout name: pest or weed control at 500 g/ha
Unit of measure: %
Value measured: 90
//
Smiles notation: O=C1NC[C@H](c2cc(C(F)F)cs2)[C@H]1C(=O)Nc1ccccc1F
Assayed target: barnyardgrass (Echinochloa crus-galli)
Readout name: pest or weed control at 500 g/ha
Unit of measure: %
Value measured: 60
//
Smiles notation: Cc1c(F)cccc1NC(=O)[C@H]1C(=O)N(C)C[C@@H]1c1ccc(OC(F)F)cc1
Assayed target: barnyardgrass (Echinochloa crus-galli)
Readout name: pest or weed control at 500 g/ha
Unit of measure: %
Value measured: 100
//
Smiles notation: CN1C[C@H](c2cc(F)cc(C(F)(F)F)c2)[C@@H](C(=O)Nc2cccc(F)c2F)C1=O
Assayed target: barnyardgrass (Echinochloa crus-galli)
Readout name: pest or weed control at 500 g/ha
Unit of measure: %
Value measured: 90
//
Smiles notation: CN1C[C@H](c2cc(F)cc(F)c2)[C@@H](C(=O)Nc2ncccc2Cl)C1=O
Assayed target: barnyardgrass (Echinochloa crus-galli)
Readout name: pest or weed control at 500 g/ha
Unit of measure: %
Value measured: 0
//
Smiles notation: O=C1NCC[C@H](c2cccc(Cl)c2)[C@H]1C(=O)Nc1ccccc1F
Assayed target: barnyardgrass (Echinochloa crus-galli)
Readout name: pest or weed control at 500 g/ha
Unit of measure: %
Value measured: 90
//
Smiles notation: CN1C[C@H](c2csc(C(F)F)c2)[C@@H](C(=O)Nc2ccccc2F)C1=O
Assayed target: barnyardgrass (Echinochloa crus-galli)
Readout name: pest or weed control at 500 g/ha
Unit of measure: %
Value measured: 90
//
Smiles notation: Cc1ccc([C@H]2CCN(C)C(=O)[C@@H]2C(=O)Nc2cccc(F)c2F)cc1
Assayed target: barnyardgrass (Echinochloa crus-galli)
Readout name: pest or weed control at 500 g/ha
Unit of measure: %
Value measured: 80

Value source: patent US12077503B2
